TARGET_OR_TEST_SYSTEM: human recombinant GPR65 (Homo sapiens, UniProt Q8IYL9)
Sequence (Q8IYL9 whole entry): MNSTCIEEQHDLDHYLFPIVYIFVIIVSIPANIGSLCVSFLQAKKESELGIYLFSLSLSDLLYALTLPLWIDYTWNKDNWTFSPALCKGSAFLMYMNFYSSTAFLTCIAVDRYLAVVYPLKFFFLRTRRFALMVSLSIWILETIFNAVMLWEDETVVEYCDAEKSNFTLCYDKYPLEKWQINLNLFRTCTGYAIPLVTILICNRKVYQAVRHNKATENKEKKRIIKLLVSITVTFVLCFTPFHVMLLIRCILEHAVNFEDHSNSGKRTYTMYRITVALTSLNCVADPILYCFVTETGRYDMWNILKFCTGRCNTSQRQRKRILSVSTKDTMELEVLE
MEASUREMENT_DESCRIPTION: Human GPR65 cAMP HTRF antagonist assay
STATED_CONDITIONS: 1321N1-hrGPR65 cells, assay pH 7.2, cAMP HTRF; read-out: hGPR65 IC50
pIC50: −log10 of the molar value.
OUTCOME_MEASURE: pIC50

Solved cases below.
[
  {
    "SMILES_ENTRY": "O=C(Nc1cc(Cl)c(-c2cc(F)c3nonc3c2)cc1F)N1CCc2cc(=O)[nH]cc2C1",
    "TARGET_OR_TEST_SYSTEM": "human recombinant GPR65 (Homo sapiens, UniProt Q8IYL9)",
    "pIC50": "> 6.30"
  },
  {
    "SMILES_ENTRY": "O=C(Nc1cc(Cl)c(-c2ccc(OCC(F)(F)F)nc2)cc1F)N1CCc2cc(=O)[nH]cc2C1",
    "TARGET_OR_TEST_SYSTEM": "human recombinant GPR65 (Homo sapiens, UniProt Q8IYL9)",
    "pIC50": "> 6.30"
  },
  {
    "SMILES_ENTRY": "Cc1cc(-c2ccc(OCC(F)(F)F)nc2)c(Cl)cc1NC(=O)N1CCc2cc(=O)[nH]cc2C1",
    "TARGET_OR_TEST_SYSTEM": "human recombinant GPR65 (Homo sapiens, UniProt Q8IYL9)",
    "pIC50": "5.30 to 6.30"
  },
  {
    "SMILES_ENTRY": "COc1ccc(-c2cc(F)c(NC(=O)N3CCc4cc(=O)[nH]cc4C3)cc2Cl)cn1",
    "TARGET_OR_TEST_SYSTEM": "human recombinant GPR65 (Homo sapiens, UniProt Q8IYL9)",
    "pIC50": "> 6.30"
  },
  {
    "SMILES_ENTRY": "O=C(Nc1cc(Cl)c(-c2ccc3nonc3c2)cc1F)N1CCc2cc(=O)[nH]cc2C1",
    "TARGET_OR_TEST_SYSTEM": "human recombinant GPR65 (Homo sapiens, UniProt Q8IYL9)",
    "pIC50": "> 6.30"
  }
]

Then there is this molecule:
Challenge: Output pIC50 of "O=C(Nc1cc(Cl)c(-c2ccc(F)nc2)cc1F)N1CCc2cc(=O)[nH]cc2C1"
Response given: 5.30 to 6.30
